# target: Ubiquitin carboxyl-terminal hydrolase 17-like protein 5 (Homo sapiens) (UniProt A8MUK1)
# Sequence (A8MUK1 whole entry, looked up): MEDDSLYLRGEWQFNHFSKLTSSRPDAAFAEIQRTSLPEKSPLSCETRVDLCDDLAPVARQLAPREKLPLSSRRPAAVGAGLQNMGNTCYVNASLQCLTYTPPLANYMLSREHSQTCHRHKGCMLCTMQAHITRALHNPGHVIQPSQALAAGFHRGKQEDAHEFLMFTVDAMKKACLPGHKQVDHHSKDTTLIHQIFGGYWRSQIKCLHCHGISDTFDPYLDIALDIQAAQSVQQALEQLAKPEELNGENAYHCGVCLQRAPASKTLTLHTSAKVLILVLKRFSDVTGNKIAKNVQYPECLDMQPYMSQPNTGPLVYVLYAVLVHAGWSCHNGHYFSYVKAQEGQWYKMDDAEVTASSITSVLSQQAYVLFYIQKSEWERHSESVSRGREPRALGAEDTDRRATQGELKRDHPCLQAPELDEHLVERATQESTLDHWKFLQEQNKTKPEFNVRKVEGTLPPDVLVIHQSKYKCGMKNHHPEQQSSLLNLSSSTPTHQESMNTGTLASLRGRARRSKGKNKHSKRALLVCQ
# assay-procedure: inhibitors of human USP17 deubiquitinase (AID 1645855)
# applied-conditions: purified USP17, Ub-rhodamine cleavage fluorescence, 3 h; at 50 µM; stronger effect = higher value
The whole screen tested about 47,000 compounds, of which about 3,100 (6.6%) were called active. Many of the other results were omitted from the sample, so actives are more common in it than they were.
Exercise: for every item that follows, state its recorded inhibition.

IN: Requested read-out: inhibition. Entry: Nc1nc(COC(=O)c2ccoc2)nc(Nc2ccccc2)n1
OUT: -3.92% (inactive)

IN: Report inhibition for COc1cccc(C2C(C(=O)Nc3ccccc3C)=C(C)Nc3ncnn32)c1OCc1ccccc1 (stereo unspecified) please.
OUT: -19.2% (inactive)

IN: Endpoint output: inhibition of COc1ccccc1NC(=O)C1=C(C)Nc2ncnn2C1c1ccc(C)o1 (stereo unspecified) . Value?
OUT: 0.179% (inactive)

IN: Requested field: inhibition. Item: Cc1nc(SCC(=O)Nc2cc(Cl)cc(Cl)c2)c2oc3ccccc3c2n1
OUT: -0.843% (inactive)

IN: Can you look up the measured inhibition of O=C(CSc1ncnc2nc[nH]c12)NC1CCCCC1 for me?
OUT: -12.5% (inactive)

IN: Look up inhibition: CC1=C(C(=O)Nc2ccccc2)C(c2ccc(OCc3c(Cl)cccc3Cl)cc2)n2ncnc2N1 (stereo unspecified)
OUT: 69.4% (active)

IN: Looking for the measured inhibition of CCCCn1c(=O)[nH]c2c(c1=O)CCC2 , can you help?
OUT: 4.26% (inactive)

IN: Fill in: inhibition of O=C(NC1CCCC1)C1c2cc(Br)ccc2OCC(=O)N1C1CCCC1 (stereo unspecified) is ___
OUT: -0.00685% (inactive)

IN: Any idea what inhibition was measured for CC1=C(C(=O)Nc2ccccc2)C(c2cccs2)n2ncnc2N1 (stereo unspecified) ?
OUT: -10.9% (inactive)

IN: Entry CN(C)C(=O)C1CN(Cc2cccc(C#N)c2)Cc2ccnn2C1 (stereo unspecified) : reported inhibition = ?
OUT: -3.45% (inactive)

IN: Fill in the blank: the reported inhibition of O=C(COc1ccc2oc3c(c2c1)CCCC3)Nc1ccccn1 is ____.
OUT: 70.8% (active)

====

Exercise: state measured inhibition for each of the compounds provided.
# target: Ubiquitin carboxyl-terminal hydrolase 17-like protein 5 (Homo sapiens) (UniProt A8MUK1)
# assay-procedure: inhibitors of human USP17 deubiquitinase (AID 1645855)
# applied-conditions: purified USP17, Ub-rhodamine cleavage fluorescence, 3 h; at 50 µM; stronger effect = higher value
The campaign covered roughly 47,000 compounds. About 3,100 (6.6%) were called active. This excerpt belongs to a sample that is enriched for actives.
Give just the numeric value; % need not be written.

IN: What measured inhibition goes with N#Cc1ccc(OCC(=O)Nc2ccccc2N2CCCCC2)cc1 ?
OUT: 8.45

IN: Name the recorded inhibition for NC(=O)c1c(NC(=O)c2ccccc2Oc2ccccc2)sc2c1CCN(Cc1ccccc1)C2 .
OUT: 30.4

IN: Need inhibition, item c1ccc(Nc2cc(CC3CCN(Cc4cnc[nH]4)CC3)ncn2)nc1
OUT: -12.1

IN: Any idea what inhibition was measured for Cc1nn(-c2cccc(F)c2)c2c1c(C)c(CCC(=O)NCc1ccccn1)c(=O)n2C ?
OUT: 32.6

IN: // returns reported inhibition for input CC(=O)Nc1ccc(C(=O)CSc2nc3ccc(C)cc3[nH]2)cc1
OUT: 12.1

IN: Any idea what inhibition was measured for N#Cc1ccc(NC(=O)Nc2cccn(Cc3ccccc3F)c2=O)cc1 ?
OUT: 93.3

IN: Which inhibition reading was recorded for the compound CC1CCc2c(sc(NC(=O)c3cc(-c4ccccc4)nc4ccccc34)c2C(N)=O)C1 (stereo not given) ?
OUT: 4.55

IN: State the recorded inhibition for this entry: O=C1CNC(=O)N1CC(O)Cn1c2ccc(Br)cc2c2cc(Br)ccc21 (stereo not given)
OUT: 40.1

IN: Which inhibition reading was recorded for the compound Cc1nn(-c2ccccc2)c2c1c(C)c(CCC(=O)N1CCN(c3ccc(F)cc3)CC1)c(=O)n2C ?
OUT: 5.08

IN: Look at this compound and give its reported inhibition. Cc1c(Cc2ccccc2)sc(NC(=O)c2cccnc2)c1C(N)=O
OUT: 10.7

====

# target: Ubiquitin carboxyl-terminal hydrolase 17-like protein 5 (Homo sapiens) (UniProt A8MUK1)
# assay-procedure: inhibitors of human USP17 deubiquitinase (AID 1645855)
# applied-conditions: purified USP17, Ub-rhodamine cleavage fluorescence, 3 h; at 50 µM
In all, about 47,000 compounds went through this assay and about 3,100 (6.6%) were called active. Cut-off read from the data, not from the text of the source: active = inhibition above about 30%; inactive = the rest. The full list was thinned out, with actives kept by preference.
Respond using exactly one of the listed classes: T = active, F = inactive

IN: Recorded test call requested for COc1ccccc1CC(=O)Nc1cc(S(=O)(=O)N2CCOCC2)ccc1N1CCN(C)CC1
OUT: F

IN: # lookup: test call for Cc1cc(=O)oc2c(C)c(OC(C)C(=O)NCc3ccncc3)ccc12 (configuration not stated)
OUT: F

IN: Answer briefly: the call reported for CC(C(=O)NCCCN1CCOCC1)C1CCN(C(=O)c2cc3ccccc3[nH]2)CC1 (configuration not stated) in this assay.
OUT: F

IN: For this compound, state the assay outcome: CC1CCN(C(=O)CSc2ccc3nnc(-c4cccc(F)c4)n3n2)CC1
OUT: F

IN: Given CCOc1ncccc1C(=O)NNC(=O)c1cn(-c2ccccc2)nc1-c1ccccc1 , state the outcome it received in this test.
OUT: F

IN: Short answer needed: outcome of this test for CCOc1ccccc1NC(=O)COc1cccc2c1OC(C)(C)C2 ?
OUT: F

IN: So what was the verdict on COc1ccccc1CNC(=O)c1ccc(-n2nc(C)c3c2CCCC3=O)cc1 in this test?
OUT: F

IN: Which outcome was entered for the compound CC(OC(=O)c1cn(-c2ccccc2)nc1-c1cccnc1)C(=O)Nc1cccc(S(=O)(=O)N(C)C)c1 (configuration not stated) in this test?
OUT: T

IN: So what was the verdict on CNc1cnc(CC2CCCN(C(=O)c3scnc3C)CC2)cn1 (configuration not stated) in this test?
OUT: F

IN: Each compound tested received a call. Report the one for COc1ccccc1OCCC(=O)Nc1cccc(S(=O)(=O)N(C)C)c1 .
OUT: F

IN: Test call, this compound: C=C(NC(=O)/C(C)=C/C=C\CCCCCC(C)C)C(=O)N/C(=C/OC)C(=O)OC
OUT: F

IN: Called result for Cc1ccc(S(=O)(=O)Nc2nc3ccccc3n3nnnc23)cc1
OUT: F

IN: // return assay outcome for O=S(=O)(c1ccccc1F)N1CCCn2nnc(COCC3CC3)c2C1
OUT: F

IN: In this assay, the call recorded for O=C(NCC(c1ccccc1)N1CCCCC1)c1cc(-c2cccs2)on1 (configuration not stated) was what?
OUT: F

IN: Hi, sorry to bother you, what did the test record for CN1CC(c2ncn[nH]2)c2cc(C(=O)NCc3cccc(F)c3)ccc21 (configuration not stated) ?
OUT: F

IN: GET /call?item= CCN1CCN(c2nc3c(c(=O)[nH]c(=O)n3C)n2CC(O)c2ccccc2)CC1 (configuration not stated) returns the recorded outcome of this test.
OUT: F

IN: Could you check what this test reported for Cc1ccc(S(=O)(=O)NC2=NC(c3ccccc3)c3cc(Cl)ccc3N2)cc1 (configuration not stated) ?
OUT: F

IN: Assay outcome for CCOc1ccccc1NC(=O)Cc1cccs1 : what was it?
OUT: T

IN: # fetch the recorded call for Cc1ocnc1C(=O)N[C@@H]1C[C@@H](Oc2ccccc2)[C@H](O)[C@H]1N1CCOCC1 here
OUT: F

IN: Could you kindly confirm the outcome this assay logged for Cc1ccc(Cc2nc(CC(=O)Nc3ccc(F)cc3F)n[nH]2)cc1 ?
OUT: F

IN: Test call for this compound, please: CC(C)n1ncc2[nH]c(C3CCCN(C(=O)Nc4ccc(F)cc4)C3)nc21 (configuration not stated)
OUT: F

IN: Record request — test call for CN1CC(=O)N(C2CCCNC2)Cc2c(NC3CCc4ccccc43)ncnc21 (configuration not stated)
OUT: T

====

# target: Ubiquitin carboxyl-terminal hydrolase 17-like protein 5 (Homo sapiens) (UniProt A8MUK1)
# assay-procedure: inhibitors of human USP17 deubiquitinase (AID 1645855)
# applied-conditions: purified USP17, Ub-rhodamine cleavage fluorescence, 3 h; at 50 µM; stronger effect = higher value
Among all 47,000 compounds or so, about 3,100 (6.6%) were called active. Only a selection was taken, and actives are over-represented in it overall.
observed-property: inhibition (%)
Response body: numeric value in %, unit text excluded.

IN: Give the measured inhibition of O=C(CCc1nnc2ccc(N3CCCCC3)nn12)Nc1ccc(S(=O)(=O)N2CCCCCC2)cc1 .
OUT: 16.3

IN: Which value of inhibition has been reported for COc1ccc(-c2noc(CN(C3CCCCC3)S(=O)(=O)c3ccc(OC)cc3)n2)cc1 in the records?
OUT: 4.09

IN: Record request: inhibition value, item CCc1ccc(C(=O)Cn2c(N3CCOCC3)nc3ccccc32)cc1
OUT: -2.13

IN: So what's the measured inhibition for this one? Cc1cccc(OCCCC(=O)Nc2sc3c(c2C(N)=O)CCCC3)c1C
OUT: -11

IN: Please look up its inhibition: Cc1ccc2occ(CC(=O)Nc3sc4c(c3C(=O)NCc3cccnc3)CCCC4)c2c1
OUT: 33.6

IN: Would you kindly share the measured inhibition for O=C(CCc1nnc2ccc(N3CCCCC3)nn12)NCCC1=CCCCC1 ?
OUT: 1.2

IN: Which inhibition is reported for this compound? COc1ccc(-c2noc(C3(c4ccccc4)CCOCC3)n2)cc1
OUT: 19.3

IN: Recorded inhibition of CC(=O)N1CC[C@H]2COC(=O)N(Cc3ccccc3)[C@@H]2C1 , please.
OUT: 5.56

IN: // lookup inhibition for Cc1ccc(NS(=O)(=O)c2cc(C(=O)NCc3cccnc3)ccc2Cl)cc1
OUT: 6.21

IN: Query: inhibition; subject: CCCCn1c(=O)[nH]c2cc(-c3nc(-c4ccccn4)no3)ccc2c1=O
OUT: -20.4

Ref: PubChem BioAssay AID1645855
